TARGET_DESC: PRC2 containing wt EZH2 (Homo sapiens (Human))
Sequence (Q15910 whole entry): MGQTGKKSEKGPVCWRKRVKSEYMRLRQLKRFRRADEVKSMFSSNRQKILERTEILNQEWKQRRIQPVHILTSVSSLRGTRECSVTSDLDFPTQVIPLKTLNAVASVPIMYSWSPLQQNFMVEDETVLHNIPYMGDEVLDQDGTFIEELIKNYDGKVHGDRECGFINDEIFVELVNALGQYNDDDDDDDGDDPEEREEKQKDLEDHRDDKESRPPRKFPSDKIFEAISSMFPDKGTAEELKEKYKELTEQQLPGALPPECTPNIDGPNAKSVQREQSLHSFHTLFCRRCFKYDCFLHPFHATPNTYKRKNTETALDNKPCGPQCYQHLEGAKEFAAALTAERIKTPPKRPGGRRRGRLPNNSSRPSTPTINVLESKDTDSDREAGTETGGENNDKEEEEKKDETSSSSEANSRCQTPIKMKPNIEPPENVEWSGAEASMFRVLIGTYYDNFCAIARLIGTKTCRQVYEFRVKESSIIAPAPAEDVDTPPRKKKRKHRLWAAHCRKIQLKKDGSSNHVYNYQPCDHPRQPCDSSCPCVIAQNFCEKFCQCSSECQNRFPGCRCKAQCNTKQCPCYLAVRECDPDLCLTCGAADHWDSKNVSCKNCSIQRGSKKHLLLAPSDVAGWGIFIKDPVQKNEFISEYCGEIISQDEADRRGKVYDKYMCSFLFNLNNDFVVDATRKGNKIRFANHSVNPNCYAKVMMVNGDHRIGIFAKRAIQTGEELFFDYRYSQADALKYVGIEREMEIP
Sequence (O75530 whole entry partner): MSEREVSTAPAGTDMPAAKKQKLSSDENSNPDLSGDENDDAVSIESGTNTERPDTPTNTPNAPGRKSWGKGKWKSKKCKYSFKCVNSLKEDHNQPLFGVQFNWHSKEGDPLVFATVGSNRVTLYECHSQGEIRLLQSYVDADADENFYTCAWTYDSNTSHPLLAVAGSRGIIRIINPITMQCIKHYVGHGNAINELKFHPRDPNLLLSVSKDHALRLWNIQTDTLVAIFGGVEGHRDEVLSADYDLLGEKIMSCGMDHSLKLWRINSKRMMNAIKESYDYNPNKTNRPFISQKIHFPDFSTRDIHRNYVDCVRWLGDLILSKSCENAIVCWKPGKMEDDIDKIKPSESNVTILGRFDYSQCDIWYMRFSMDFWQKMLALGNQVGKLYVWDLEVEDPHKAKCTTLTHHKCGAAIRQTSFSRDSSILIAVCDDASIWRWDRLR
Sequence (Q15022 whole entry partner): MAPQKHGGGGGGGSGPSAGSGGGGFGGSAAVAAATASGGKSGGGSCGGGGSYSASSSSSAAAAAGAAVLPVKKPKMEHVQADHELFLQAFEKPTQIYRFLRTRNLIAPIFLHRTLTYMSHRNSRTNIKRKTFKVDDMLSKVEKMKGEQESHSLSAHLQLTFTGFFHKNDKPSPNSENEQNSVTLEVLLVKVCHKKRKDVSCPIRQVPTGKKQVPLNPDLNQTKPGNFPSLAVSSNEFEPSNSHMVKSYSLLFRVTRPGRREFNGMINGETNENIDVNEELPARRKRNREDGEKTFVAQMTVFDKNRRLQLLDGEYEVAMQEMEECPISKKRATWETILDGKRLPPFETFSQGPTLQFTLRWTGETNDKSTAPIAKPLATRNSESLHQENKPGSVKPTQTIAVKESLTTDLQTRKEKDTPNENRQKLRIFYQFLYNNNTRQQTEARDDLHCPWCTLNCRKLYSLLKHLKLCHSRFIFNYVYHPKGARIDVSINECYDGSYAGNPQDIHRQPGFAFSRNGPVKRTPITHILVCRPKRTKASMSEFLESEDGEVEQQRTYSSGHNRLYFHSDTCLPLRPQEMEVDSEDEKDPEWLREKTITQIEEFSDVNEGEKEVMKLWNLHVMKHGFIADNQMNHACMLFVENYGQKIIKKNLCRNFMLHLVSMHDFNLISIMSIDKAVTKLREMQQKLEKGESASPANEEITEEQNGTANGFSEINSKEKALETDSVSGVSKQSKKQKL
Sequence (Q09028 whole entry partner): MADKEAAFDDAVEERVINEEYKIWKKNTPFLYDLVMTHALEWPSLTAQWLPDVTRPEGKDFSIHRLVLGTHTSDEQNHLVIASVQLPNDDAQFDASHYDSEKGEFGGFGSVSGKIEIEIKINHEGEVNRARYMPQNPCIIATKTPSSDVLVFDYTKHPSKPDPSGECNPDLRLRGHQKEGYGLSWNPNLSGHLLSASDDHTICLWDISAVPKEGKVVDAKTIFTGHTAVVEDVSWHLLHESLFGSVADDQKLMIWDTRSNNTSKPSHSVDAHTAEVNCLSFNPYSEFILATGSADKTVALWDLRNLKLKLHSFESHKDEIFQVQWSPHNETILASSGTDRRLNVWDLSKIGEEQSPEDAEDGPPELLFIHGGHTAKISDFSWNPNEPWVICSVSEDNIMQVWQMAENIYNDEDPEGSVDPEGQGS
Sequence (Q6ZN18 whole entry partner): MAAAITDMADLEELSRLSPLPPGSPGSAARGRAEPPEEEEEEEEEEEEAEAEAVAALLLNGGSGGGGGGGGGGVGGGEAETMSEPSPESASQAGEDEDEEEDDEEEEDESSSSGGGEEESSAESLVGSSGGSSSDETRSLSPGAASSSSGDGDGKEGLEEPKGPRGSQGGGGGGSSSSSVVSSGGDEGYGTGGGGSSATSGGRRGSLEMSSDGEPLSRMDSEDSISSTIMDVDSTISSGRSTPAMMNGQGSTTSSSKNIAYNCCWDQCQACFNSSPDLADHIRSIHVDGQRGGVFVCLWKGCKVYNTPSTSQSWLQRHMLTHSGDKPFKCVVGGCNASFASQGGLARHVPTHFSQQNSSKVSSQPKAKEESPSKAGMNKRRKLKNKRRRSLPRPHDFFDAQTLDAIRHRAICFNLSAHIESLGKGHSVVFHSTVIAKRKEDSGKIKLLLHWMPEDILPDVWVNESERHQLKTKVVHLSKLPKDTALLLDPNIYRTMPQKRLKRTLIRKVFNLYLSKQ
ASSAY: EZH2 biochemical assay (IC50), 3H-SAM incorporation into biotinylated H3 peptide
EXPERIMENTAL_CONDITIONS: 30 pM PRC2 containing wt EZH2; 3-5 h pre-incubation; read-out: EZH2 (IC50)
pIC50: −log10 of the molar value.

COMPOUND	pIC50
CSc1cc(C)[nH]c(=O)c1CNC(=O)c1c(C)n([C@H](C)C2CCC(N3CC(N(C)C)C3)CC2)c2ccccc12 (single isomer, unassigned) [148 (isomer 2)]	> 9.30
COC1(C)CN(C2CCC([C@@H](C)n3c(C)c(C(=O)NCc4c(SC)cc(C)[nH]c4=O)c4ccccc43)CC2)C1 (single isomer, unassigned) [90 (isomer 1)]	> 9.30
CSc1cc(C)[nH]c(=O)c1CNC(=O)c1c(C)n([C@H](C)C2CCC(NC3(CF)COC3)CC2)c2ncccc12 (single isomer, unassigned) [155 (isomer 1)]	> 9.30
CSc1cc(C)[nH]c(=O)c1CNC(=O)c1c(C)n([C@H](C)C2OCC(NC3(C)COC3)CO2)c2ccccc12 (single isomer, unassigned) [6 (isomer 2)]	8.30 to 9.30
CSc1cc(C)[nH]c(=O)c1CNC(=O)c1c(C)n([C@H](C)[C@H]2CC[C@H](NC3(C)COC3)CC2)c2ccccc12 (single isomer, unassigned) [1 (isomer 2)]	> 9.30

These entries and their values trace back to patent US11459315B2.
